Reference source for all entries: paper PMC3553564

tgt: PWI K734A+R735A+K736A (Homo sapiens, UniProt P49756 734-843, K734A;R735A;K736A)
Sequence (P49756 734-843 K734A/R735A/K736A): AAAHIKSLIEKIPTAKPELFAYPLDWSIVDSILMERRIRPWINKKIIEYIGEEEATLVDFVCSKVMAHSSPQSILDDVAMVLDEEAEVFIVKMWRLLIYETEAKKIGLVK
method_notes: fluorescence polarization
assay_readout: Kd

| binder | measurement |
| --- | --- |
| AUCGGGCA (ssRNA) [ssRNA] | 183 µM |

Now consider the entry below.
Q: Quick one: Kd for dsDNA (dsDNA) DNA 1: CCTTACAGCAAA DNA 2: TTTGCTGTAAGG ?
A: ~194 µM
